Assign viability at 2 h, 3.12 µM to each entry below.
Assay type: cell-based, human
Experimental Parameters: human, Cell viability (%)
Bridge positions count the residues as written; N and C are the ends. Square brackets hold non-standard residues; d marks the D form. Peptide text beside a SMILES is read from it. Pro(cis-4-guanidino) = NC(N)=N[C@@H]1CN[C@H](C(=O)O)C1; Phe(4-guanidino) = N=C(N)Nc1ccc(C[C@H](N)C(=O)O)cc1
Give bare numbers, in %.

Consider the following illustrative entries.
Molecule: CC[C@H](C)[C@H](NC(=O)[C@H](CCCNC(=N)N)NC(=O)[C@H]1CCC(=O)NCCCC[C@H](NC(=O)[C@H](Cc2ccccc2)NC(=O)[C@H](Cc2c[nH]c3ccccc23)NC(=O)[C@@H]2C[C@H](NC(=N)N)CN2C(=O)[C@@H](NC(=O)[C@@H](N)Cc2ccccc2)C(C)C)C(=O)N[C@@H](CCCCN)C(=O)N[C@@H](Cc2ccccc2)C(=O)N[C@H](CC(C)C)C(=O)N1)C(=O)N[C@@H](CC(C)C)C(N)=O [Peptide 7, FV(4-guanidino)PWF[KKFle]RIL] (H-FV[Pro(cis-4-guanidino)]WFKKF[dL][dE]RIL-NH2; lactam 6-10)
Unit Tag: %
viability at 2 h, 3.12 µM: 101

Molecule: CC[C@H](C)[C@H](NC(=O)[C@H](CCCNC(=N)N)NC(=O)[C@H]1CCC(=O)NCCCC[C@H](NC(=O)[C@H](Cc2ccc(NC(=N)N)cc2)NC(=O)[C@H](Cc2c[nH]c3ccccc23)NC(=O)[C@@H]2CCCN2C(=O)[C@@H](NC(=O)[C@@H](N)Cc2ccccc2)C(C)C)C(=O)N[C@@H](CCCCN)C(=O)N[C@@H](Cc2ccccc2)C(=O)N[C@H](CC(C)C)C(=O)N1)C(=O)N[C@@H](CC(C)C)C(N)=O [Peptide 8, FVPW(p-guanidino)F[KKFle]RIL] (H-FVPW[Phe(4-guanidino)]KKF[dL][dE]RIL-NH2; lactam 6-10)
Unit Tag: %
viability at 2 h, 3.12 µM: 111

Molecule: CC[C@H](C)[C@H](NC(=O)[C@H](CCCNC(=N)N)NC(=O)[C@H]1CCC(=O)NCCCC[C@H](NC(=O)[C@H](Cc2ccccc2)NC(=O)[C@H](Cc2c[nH]c3ccccc23)NC(=O)[C@@H]2CCCN2C(=O)[C@@H](NC(=O)[C@@H](N)Cc2ccccc2)C(C)C)C(=O)N[C@@H](CCCNC(=N)N)C(=O)N[C@@H](Cc2ccccc2)C(=O)N[C@H](CC(C)C)C(=O)N1)C(=O)N[C@@H](CC(C)C)C(N)=O [Peptide 9, FVPWF[KRFle]RIL] (H-FVPWFKRF[dL][dE]RIL-NH2; lactam 6-10)
Unit Tag: %
viability at 2 h, 3.12 µM: 106

Query CC[C@H](C)[C@H](NC(=O)[C@H](CCCNC(=N)N)NC(=O)[C@H]1CCC(=O)NCCCC[C@H](NC(=O)[C@H](Cc2ccccc2)NC(=O)[C@H](Cc2c[nH]c3ccccc23)NC(=O)[C@@H]2CCCN2C(=O)[C@@H](NC(=O)[C@@H](N)Cc2ccccc2)C(C)C)C(=O)N[C@@H](CCCCN)C(=O)N[C@@H](Cc2ccc(NC(=N)N)cc2)C(=O)N[C@H](CC(C)C)C(=O)N1)C(=O)N[C@@H](CC(C)C)C(N)=O [Peptide 10, FVPWF[KK(p-guanidino)Fle]RIL] (H-FVPWFKK[Phe(4-guanidino)][dL][dE]RIL-NH2; lactam 6-10) yields viability at 2 h, 3.12 µM of 105

---

Answer each item with its documented MIC.
Tested on: E. faecalis ATCC 29212
Assay Notes: microbe, parasite or virus in culture
Format: cell-based
Experimental Parameters: ATCC 29212
Bridge positions count the residues as written; N and C are the ends. Square brackets hold non-standard residues; d marks the D form. Peptide text beside a SMILES is read from it. * marks the point of attachment. Pro(cis-4-guanidino) = NC(N)=N[C@@H]1CN[C@H](C(=O)O)C1; Butanoyl(4-guanidino) = N=C(N)NCCCC(=O)*

Known results for compounds:
Compound: CC[C@H](C)[C@H](NC(=O)[C@H](CCCNC(=N)N)NC(=O)[C@@H]1CCCCNC(=N)NCCCC[C@H](NC(=O)[C@H](Cc2ccccc2)NC(=O)[C@H](Cc2c[nH]c3ccccc23)NC(=O)[C@@H]2CCCN2C(=O)[C@@H](NC(=O)[C@@H](N)Cc2ccccc2)C(C)C)C(=O)N[C@@H](CCCCN)C(=O)N[C@@H](Cc2ccccc2)C(=O)N[C@H](CC(C)C)C(=O)N1)C(=O)N[C@@H](CC(C)C)C(N)=O [Peptide 11, FVPWF{KKFlK}RIL]
Reported: 12.5 µM

Compound: CC[C@H](C)[C@H](NC(=O)[C@H](CCCNC(=N)N)NC(=O)[C@H]1CCC(=O)NCCCC[C@H](NC(=O)[C@H](Cc2ccccc2)NC(=O)[C@H](Cc2c[nH]c3ccccc23)NC(=O)[C@@H]2CCCN2C(=O)[C@@H](NC(=O)[C@H](Cc2ccccc2)NC(=O)CCCNC(=N)N)C(C)C)C(=O)N[C@@H](CCCCN)C(=O)N[C@@H](Cc2ccccc2)C(=O)N[C@H](CC(C)C)C(=O)N1)C(=O)N[C@@H](CC(C)C)C(N)=O [Peptide 5, guanidino-GABA-FVPWF[KKFle]RIL] ({Butanoyl(4-guanidino)}-FVPWFKKF[dL][dE]RIL-NH2; lactam 6-10)
Reported: 6.25 µM

Give MIC for each listed item.
1. CC[C@H](C)[C@H](NC(=O)[C@H](CCCNC(=N)N)NC(=O)[C@H]1CCC(=O)NCCCC[C@H](NC(=O)[C@H](Cc2ccccc2)NC(=O)[C@H](Cc2c[nH]c3ccccc23)NC(=O)[C@@H]2CCCN2C(=O)[C@@H](NC(=O)[C@@H](N)Cc2ccccc2)C(C)C)C(=O)N[C@@H](CCCCN)C(=O)N[C@@H](Cc2ccccc2)C(=O)N[C@H](CC(C)C)C(=O)N1)C(=O)N[C@@H](CC(C)C)C(N)=O [Peptide 2, FVPWF[KKFle]RIL] (H-FVPWFKKF[dL][dE]RIL-NH2; lactam 6-10)
2. CC[C@H](C)[C@H](NC(=O)[C@H](CCCNC(=N)N)NC(=O)[C@H]1CCC(=O)NCCCC[C@H](NC(=O)[C@H](Cc2ccccc2)NC(=O)[C@H](Cc2c[nH]c3ccccc23)NC(=O)[C@@H]2C[C@H](NC(=N)N)CN2C(=O)[C@@H](NC(=O)[C@@H](N)Cc2ccccc2)C(C)C)C(=O)N[C@@H](CCCCN)C(=O)N[C@@H](Cc2ccccc2)C(=O)N[C@H](CC(C)C)C(=O)N1)C(=O)N[C@@H](CC(C)C)C(N)=O [Peptide 7, FV(4-guanidino)PWF[KKFle]RIL] (H-FV[Pro(cis-4-guanidino)]WFKKF[dL][dE]RIL-NH2; lactam 6-10)

a:
1. 25 µM
2. 12.5 µM

---

Could you please report measured remaining at 4 h, 200 μM for the items listed next?
Assay Notes: in vitro
Format: in vitro ADME
Experimental Parameters: isolated enzyme chymotrypsin, pH 7.8
Bridge positions count the residues as written; N and C are the ends. Square brackets hold non-standard residues; d marks the D form. Peptide text beside a SMILES is read from it. Pro(cis-4-guanidino) = NC(N)=N[C@@H]1CN[C@H](C(=O)O)C1; Phe(4-guanidino) = N=C(N)Nc1ccc(C[C@H](N)C(=O)O)cc1

Example cases with answers are listed next.
Molecule: CC[C@H](C)[C@H](NC(=O)[C@H](CCCNC(=N)N)NC(=O)[C@H]1CCC(=O)NCCCC[C@H](NC(=O)[C@H](Cc2ccccc2)NC(=O)[C@H](Cc2c[nH]c3ccccc23)NC(=O)[C@@H]2CCCN2C(=O)[C@@H](NC(=O)[C@@H](N)Cc2ccc(NC(=N)N)cc2)C(C)C)C(=O)N[C@@H](CCCCN)C(=O)N[C@@H](Cc2ccccc2)C(=O)N[C@H](CC(C)C)C(=O)N1)C(=O)N[C@@H](CC(C)C)C(N)=O [Peptide 6, (p-guanidino)FVPWF[KKFle]RIL] (H-[Phe(4-guanidino)]VPWFKKF[dL][dE]RIL-NH2; lactam 6-10)
remaining at 4 h, 200 μM: ~20%

Molecule: CC[C@H](C)[C@H](NC(=O)[C@H](CCCNC(=N)N)NC(=O)[C@H]1CCC(=O)NCCCC[C@H](NC(=O)[C@H](Cc2ccccc2)NC(=O)[C@H](Cc2c[nH]c3ccccc23)NC(=O)[C@@H]2CCCN2C(=O)[C@@H](NC(=O)[C@@H](N)Cc2ccccc2)C(C)C)C(=O)N[C@@H](CCCCN)C(=O)N[C@@H](Cc2ccccc2)C(=O)N[C@H](CC(C)C)C(=O)N1)C(=O)N[C@@H](CC(C)C)C(N)=O [Peptide 2, FVPWF[KKFle]RIL] (H-FVPWFKKF[dL][dE]RIL-NH2; lactam 6-10)
remaining at 4 h, 200 μM: ~20%

Molecule: CC[C@H](C)[C@H](NC(=O)[C@H](CCCNC(=N)N)NC(=O)[C@H]1CCC(=O)NCCCC[C@H](NC(=O)[C@H](Cc2ccccc2)NC(=O)[C@H](Cc2c[nH]c3ccccc23)NC(=O)[C@@H]2C[C@H](NC(=N)N)CN2C(=O)[C@@H](NC(=O)[C@@H](N)Cc2ccccc2)C(C)C)C(=O)N[C@@H](CCCCN)C(=O)N[C@@H](Cc2ccccc2)C(=O)N[C@H](CC(C)C)C(=O)N1)C(=O)N[C@@H](CC(C)C)C(N)=O [Peptide 7, FV(4-guanidino)PWF[KKFle]RIL] (H-FV[Pro(cis-4-guanidino)]WFKKF[dL][dE]RIL-NH2; lactam 6-10)
remaining at 4 h, 200 μM: ~20%

API: the following record is the query input.
Please fill in: remaining at 4 h, 200 μM reported for CC[C@H](C)[C@H](NC(=O)[C@H](CCCNC(=N)N)NC(=O)[C@H]1CCCCNC(=N)NCCCC[C@H](NC(=O)[C@H](Cc2ccccc2)NC(=O)[C@H](Cc2c[nH]c3ccccc23)NC(=O)[C@@H]2CCCN2C(=O)[C@@H](NC(=O)[C@@H](N)Cc2ccccc2)C(C)C)C(=O)N[C@@H](CCCCN)C(=O)N[C@@H](Cc2ccccc2)C(=O)N[C@H](CC(C)C)C(=O)N1)C(=O)N[C@@H](CC(C)C)C(N)=O [Peptide 12, FVPWF{KKFlk}RIL] = ~40%

Sourced from paper PMC12703733
